Provide the recorded pIC50 for the entries that follow.
# assay-system: Tyrosine-protein kinase JAK3 (Homo sapiens)
# protocol-notes: Inhibition of recombinant human N-terminal His6-tagged JAK3 (781 to end residues) expressed in baculovirus infected Sf21 cells using STK as substrate by HTRF assay
One number for each entry, as −log10 of the molar value.

C=CC(=O)N1CCC(Oc2nc(Nc3ccc(N4CCN(C(C)=O)CC4)cc3)nc3[nH]cc(-c4cncc(NC)n4)c23)CC1	7.29
CNc1cncc(-c2c[nH]c3nc(Nc4ccc(N5CCN(C(C)=O)CC5)cc4)nc(Oc4ccccc4)c23)n1	6.33
C=CC(=O)N1CCC(Oc2nc(Nc3ccc(N4CCOCC4)cc3)nc3[nH]cc(-c4ccnc(NC)c4)c23)CC1	8.38
CNc1cncc(-c2c[nH]c3nc(Nc4ccc(N5CCN(C(C)=O)CC5)cc4)nc(OC4CCOCC4)c23)n1	6.73
C=CC(=O)N1CCC[C@@H](Oc2nc(Nc3ccc(N4CCN(C(C)=O)CC4)cc3)nc3[nH]cc(-c4cncc(NC)n4)c23)C1	7.62
C=CC(=O)Nc1cccc(Oc2nc(Nc3ccc(N4CCOCC4)cc3)nc3[nH]cc(-c4ccncc4)c23)c1	9.22
C=CC(=O)N1CCC[C@H]1COc1nc(Nc2ccc(N3CCN(C(C)=O)CC3)cc2)nc2[nH]cc(-c3cncc(NC)n3)c12	8.43

Ask: Given the compound C=CC(=O)N1CCC(Oc2nc(Nc3ccc(N4CCOCC4)cc3)nc3[nH]cc(-c4cncc(NC)c4)c23)CC1 , what is its reported pIC50?
Reply: 7.08

---

# assay-system: Tyrosine-protein kinase ITK/TSK (Homo sapiens, UniProt Q08881)
# Sequence (Q08881 whole entry, the tested form may be a part): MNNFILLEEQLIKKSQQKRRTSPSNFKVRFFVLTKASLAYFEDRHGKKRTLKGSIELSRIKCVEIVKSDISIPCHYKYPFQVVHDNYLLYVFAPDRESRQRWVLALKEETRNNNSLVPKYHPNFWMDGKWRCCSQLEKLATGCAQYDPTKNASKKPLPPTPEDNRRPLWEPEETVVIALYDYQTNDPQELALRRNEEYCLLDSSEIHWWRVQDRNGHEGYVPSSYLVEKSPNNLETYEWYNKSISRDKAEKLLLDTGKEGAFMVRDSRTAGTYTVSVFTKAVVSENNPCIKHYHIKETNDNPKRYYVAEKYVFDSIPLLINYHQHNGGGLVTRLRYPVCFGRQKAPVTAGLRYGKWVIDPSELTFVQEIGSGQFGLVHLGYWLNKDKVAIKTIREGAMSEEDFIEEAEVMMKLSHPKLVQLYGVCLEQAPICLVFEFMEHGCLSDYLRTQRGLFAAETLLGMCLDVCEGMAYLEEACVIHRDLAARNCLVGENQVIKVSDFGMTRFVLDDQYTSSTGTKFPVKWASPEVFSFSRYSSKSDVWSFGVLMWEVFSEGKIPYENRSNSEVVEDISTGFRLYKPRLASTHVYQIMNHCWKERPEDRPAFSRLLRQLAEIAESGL
# protocol-notes: Inhibition of recombinant human N-terminal His6-tagged ITK (352 to 617 residues) expressed in baculovirus infected Sf21 insect cells using STK substrate by HTRF assay
Provide the recorded log10 of IC50 for the entries that follow.
Would you kindly interpret these values as log10 of IC50 expressed in nM?

Solved cases (8 shown):
C=CC(=O)N1CCC[C@@H]1COc1nc(Nc2ccc(N3CCN(C(C)=O)CC3)cc2)nc2[nH]cc(-c3cncc(NC)n3)c12	0.34
CNc1cncc(-c2c[nH]c3nc(Nc4ccc(N5CCN(C(C)=O)CC5)cc4)nc(OC4CCCCC4)c23)n1	0.71
C#CCCN1CCN(c2ccc(Nc3nc(OC4CCN(C(=O)C=C)CC4)c4c(-c5cncc(NC)n5)c[nH]c4n3)cc2)CC1	1.74
C=CC(=O)N1CCC(Oc2nc(Nc3ccc(N4CCOCC4)cc3)nc3[nH]cc(-c4cccc(NC)n4)c23)CC1	1.87
C=CC(=O)N1CCC(Oc2nc(Nc3ccc(N4CCOCC4)cc3)nc3[nH]cc(-c4cncc(NC)n4)c23)CC1	0.57
C=CC(=O)N1CCC(Oc2nc(Nc3ccc(N4CCN(C(C)=O)CC4)cc3)nc3[nH]cc(-c4cncc(NC)n4)c23)CC1	0.36
C=CC(=O)N1CCC(Oc2nc(Nc3ccc(N4CCOCC4)cc3)nc3[nH]cc(-c4cncc(NC)c4)c23)CC1	0.56
C=CC(=O)N1CCC[C@H](Oc2nc(Nc3ccc(N4CCN(C(C)=O)CC4)cc3)nc3[nH]cc(-c4cncc(NC)n4)c23)C1	2.57

From here, focus on the item given below.
Ask: Given the compound C=CC(=O)Nc1cccc(Oc2nc(Nc3ccc(N4CCOCC4)cc3)nc3[nH]cc(-c4ccncc4)c23)c1 , what is its reported log10 of IC50?
Reply: -0.30

---

# assay-system: Tyrosine-protein kinase BTK (Homo sapiens)
# Sequence (Q06187 whole entry): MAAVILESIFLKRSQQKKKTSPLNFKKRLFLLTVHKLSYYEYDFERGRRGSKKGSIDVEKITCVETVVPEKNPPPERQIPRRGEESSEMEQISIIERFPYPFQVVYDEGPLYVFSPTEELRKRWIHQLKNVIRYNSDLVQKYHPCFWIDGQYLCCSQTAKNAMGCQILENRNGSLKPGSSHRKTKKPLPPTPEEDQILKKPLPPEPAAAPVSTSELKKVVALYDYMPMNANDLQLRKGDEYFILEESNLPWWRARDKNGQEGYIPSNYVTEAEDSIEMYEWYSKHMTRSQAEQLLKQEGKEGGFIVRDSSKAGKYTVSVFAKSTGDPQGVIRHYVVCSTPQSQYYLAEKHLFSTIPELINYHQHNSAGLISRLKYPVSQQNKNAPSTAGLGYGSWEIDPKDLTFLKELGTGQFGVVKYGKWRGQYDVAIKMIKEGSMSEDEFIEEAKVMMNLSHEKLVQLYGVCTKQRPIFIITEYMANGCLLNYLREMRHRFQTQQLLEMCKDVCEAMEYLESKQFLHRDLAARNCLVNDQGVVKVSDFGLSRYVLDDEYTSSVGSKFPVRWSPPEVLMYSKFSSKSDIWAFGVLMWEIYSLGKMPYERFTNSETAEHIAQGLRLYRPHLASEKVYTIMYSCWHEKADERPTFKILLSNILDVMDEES
# protocol-notes: Inhibition of recombinant human full-length N-terminal His6-tagged BTK expressed in baculovirus infected Sf21 insect cells using STK substrate by HTRF assay
Provide the recorded IC50 for the entries that follow.
Answers are plain numbers, in µM.

Solved cases (8 shown):
C=CC(=O)N1CCC(Oc2nc(Nc3ccc(N4CCN(C(C)=O)CC4)cc3)nc3[nH]cc(-c4cncc(NC)n4)c23)CC1	1.48
C=CC(=O)N1CCC[C@@H](Oc2nc(Nc3ccc(N4CCN(CC)CC4)cc3)nc3[nH]cc(-c4cncc(NC)n4)c23)C1	0.026
C=CC(=O)N1CCC[C@@H](Oc2nc(Nc3ccc(N4CCOCC4)cc3)nc3[nH]cc(-c4cncc(NC)n4)c23)C1	0.035
CNc1cncc(-c2c[nH]c3nc(Nc4ccc(N5CCN(C(C)=O)CC5)cc4)nc(Oc4ccccc4)c23)n1	1.46
C=CC(=O)N1CCC(Oc2nc(Nc3ccc(N4CCOCC4)cc3)nc3[nH]cc(-c4ccnc(NC)c4)c23)CC1	0.036
C=CC(=O)N1CCC(Oc2nc(Nc3ccc(N4CCOCC4)cc3)nc3[nH]cc(-c4cncc(NC)c4)c23)CC1	0.942
C=CC(=O)N1CCC(Oc2nc(Nc3ccc(N4CCOCC4)cc3)nc3[nH]cc(-c4cncc(NC)n4)c23)CC1	0.996
C=CC(=O)Nc1cccc(Oc2nc(Nc3ccc(N4CCN(C(C)=O)CC4)cc3)nc3[nH]cc(-c4cncc(NC)n4)c23)c1	0.008

Value sought for every listed compound: IC50.
1. CNc1cncc(-c2c[nH]c3nc(Nc4ccc(N5CCN(C(C)=O)CC5)cc4)nc(OC4CCCCC4)c23)n1
2. C=CC(=O)N1CCC[C@H]1COc1nc(Nc2ccc(N3CCN(C(C)=O)CC3)cc2)nc2[nH]cc(-c3cncc(NC)n3)c12
3. CNc1cncc(-c2c[nH]c3nc(Nc4ccc(N5CCN(C(C)=O)CC5)cc4)nc(OC4CCOCC4)c23)n1
4. C=CC(=O)Nc1cccc(Oc2nc(Nc3ccc(N4CCOCC4)cc3)nc3[nH]cc(-c4ccncc4)c23)c1

Reply:
1: 1.47; 2: 0.434; 3: 1.61; 4: 0.0039

Value sought for every listed compound: IC50.
1. C=CC(=O)N1CCC[C@@H](Oc2nc(Nc3ccc(N4CCN(C(C)=O)CC4)cc3)nc3[nH]cc(-c4cncc(NC)n4)c23)C1
2. C=CC(=O)N1CCC[C@@H]1COc1nc(Nc2ccc(N3CCN(C(C)=O)CC3)cc2)nc2[nH]cc(-c3cncc(NC)n3)c12

Reply:
0.27
0.286

---

# assay-system: Tyrosine-protein kinase JAK3 (Homo sapiens, UniProt P52333)
# Sequence (P52333 whole entry): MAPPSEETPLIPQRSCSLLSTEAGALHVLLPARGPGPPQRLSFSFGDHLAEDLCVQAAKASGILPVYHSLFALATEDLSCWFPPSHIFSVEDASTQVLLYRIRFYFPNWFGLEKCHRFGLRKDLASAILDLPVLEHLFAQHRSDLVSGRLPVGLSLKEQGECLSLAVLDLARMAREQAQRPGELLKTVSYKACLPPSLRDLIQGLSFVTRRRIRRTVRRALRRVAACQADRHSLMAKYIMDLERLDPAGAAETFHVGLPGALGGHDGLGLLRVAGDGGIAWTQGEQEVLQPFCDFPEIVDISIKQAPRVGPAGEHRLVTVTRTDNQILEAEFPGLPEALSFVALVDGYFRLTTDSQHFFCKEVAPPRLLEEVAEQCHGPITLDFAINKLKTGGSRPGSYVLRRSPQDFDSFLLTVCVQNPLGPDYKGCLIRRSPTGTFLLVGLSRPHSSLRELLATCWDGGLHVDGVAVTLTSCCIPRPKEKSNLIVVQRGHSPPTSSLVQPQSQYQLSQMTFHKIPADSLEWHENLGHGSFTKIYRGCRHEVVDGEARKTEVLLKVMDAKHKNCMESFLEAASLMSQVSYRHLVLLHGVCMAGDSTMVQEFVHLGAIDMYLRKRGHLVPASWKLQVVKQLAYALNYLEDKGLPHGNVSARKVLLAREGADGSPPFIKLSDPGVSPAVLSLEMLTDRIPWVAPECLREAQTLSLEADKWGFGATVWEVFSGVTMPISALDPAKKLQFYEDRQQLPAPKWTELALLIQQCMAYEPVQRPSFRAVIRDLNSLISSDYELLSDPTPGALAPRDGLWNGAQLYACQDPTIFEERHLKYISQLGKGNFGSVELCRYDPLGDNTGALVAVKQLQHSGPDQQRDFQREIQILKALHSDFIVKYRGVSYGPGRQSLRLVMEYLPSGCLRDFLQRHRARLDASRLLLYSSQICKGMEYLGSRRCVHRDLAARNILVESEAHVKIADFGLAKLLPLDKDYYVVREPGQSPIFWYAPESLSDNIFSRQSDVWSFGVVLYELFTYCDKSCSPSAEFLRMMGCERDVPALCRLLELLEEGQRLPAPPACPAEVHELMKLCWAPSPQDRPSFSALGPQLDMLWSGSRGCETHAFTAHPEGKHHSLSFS
# protocol-notes: Inhibition of recombinant human N-terminal His6-tagged JAK3 (781 to end residues) expressed in baculovirus infected Sf21 cells using STK as substrate by HTRF assay
metric-name: log10 of IC50 (log10 of the value in nM)
Would you kindly interpret these values as log10 of IC50 expressed in nM?

Solved cases (5 shown):
C=CC(=O)N1CCC[C@@H](Oc2nc(Nc3ccc(N4CCOCC4)cc3)nc3[nH]cc(-c4cncc(NC)n4)c23)C1	1.04
C=CC(=O)N1CCC(Oc2nc(Nc3ccc(N4CCOCC4)cc3)nc3[nH]cc(-c4cccc(NC)n4)c23)CC1	3.16
C=CC(=O)N1CCC[C@@H](Oc2nc(Nc3ccc(N4CCN(CC)CC4)cc3)nc3[nH]cc(-c4cncc(NC)n4)c23)C1	0.08
C#CCCN1CCN(c2ccc(Nc3nc(OC4CCN(C(=O)C=C)CC4)c4c(-c5cncc(NC)n5)c[nH]c4n3)cc2)CC1	1.79
C=CC(=O)N1CCC(Oc2nc(Nc3ccc(N4CCOCC4)cc3)nc3[nH]cc(-c4cncc(NC)n4)c23)CC1	2.09

Value sought for every listed compound: log10 of IC50.
1. CNc1cncc(-c2c[nH]c3nc(Nc4ccc(N5CCN(C(C)=O)CC5)cc4)nc(OC4CCCCC4)c23)n1
2. C=CC(=O)N1CCC[C@@H]1COc1nc(Nc2ccc(N3CCN(C(C)=O)CC3)cc2)nc2[nH]cc(-c3cncc(NC)n3)c12

Reply:
1: 2.02; 2: 1.84

---

# assay-system: Tyrosine-protein kinase ITK/TSK (Homo sapiens, UniProt Q08881)
# protocol-notes: Inhibition of recombinant human N-terminal His6-tagged ITK (352 to 617 residues) expressed in baculovirus infected Sf21 insect cells using STK substrate by HTRF assay
Provide the recorded IC50 for the entries that follow.
Numbers only, in nM.

Solved cases (4 shown):
C=CC(=O)N1CCC[C@@H](Oc2nc(Nc3ccc(N4CCN(C(C)=O)CC4)cc3)nc3[nH]cc(-c4cncc(NC)n4)c23)C1	3.7
C=CC(=O)Nc1cccc(Oc2nc(Nc3ccc(N4CCN(C(C)=O)CC4)cc3)nc3[nH]cc(-c4cncc(NC)n4)c23)c1	5.4
C=CC(=O)N1CCC[C@@H](Oc2nc(Nc3ccc(N4CCN(CC)CC4)cc3)nc3[nH]cc(-c4cncc(NC)n4)c23)C1	1.3
C=CC(=O)N1CCC[C@H]1COc1nc(Nc2ccc(N3CCN(C(C)=O)CC3)cc2)nc2[nH]cc(-c3cncc(NC)n3)c12	7.8

Ask: Recorded IC50 for CNc1cncc(-c2c[nH]c3nc(Nc4ccc(N5CCN(C(C)=O)CC5)cc4)nc(OC4CCOCC4)c23)n1 with Tyrosine-protein kinase ITK/TSK (Homo sapiens, UniProt Q08881), please?
Reply: 7.1
